For each record, write down the corresponding TGI.
Test system: LOX IMVI melanoma
method_summary: NCI tumour cell line growth inhibition, 48 h

Task item: # get_value(readout='TGI', item= CC(=O)NC1C(OCc2ccccc2)OC(CO)C(O)C1OC(C)C(=O)NC(C(=O)NC(CCC(=O)Nc1ccc2c(c1)CN1C(=O)c3ccccc3C1=N2)C(N)=O)C(C)C (stereo not drawn) )
Reply: > 100 µM

Task item: Further, for Nc1cccc2cc(S(=O)(=O)Nc3ccc(C(=O)O)cc3)ccc12 ?
Reply: > 100 µM

Task item: Entry COc1ccc(C=O)c(N(C)C(=O)C(C)(C)C)c1 please
Reply: > 100 µM
